# Tested on: Cryptococcus neoformans
# run-description: Concentration that substantially inhibit the growth of Cryptococcus neoformans
# Format: functional
readout-kind: MIC (µM)
Your answer is read as µM, so omit the unit and give the number.

Problem: Entry "CC[C@H](C)[C@H](NC(=O)[C@@H](Cc1ccccc1)NC(=O)[C@@H](Cc1c[nH]c2ccccc12)NC(=O)[C@@H](N)CCCN=C(N)N)C(=O)N[C@H](Cc1ccccc1)C(=O)N[C@@H](Cc1c[nH]cn1)C(=O)N[C@@H](CCCCN)C(=O)N[C@@H](CCCN=C(N)N)C(=O)N[C@@H](CCCN=C(N)N)C(N)=O" has what MIC?
Solution: 4.64

Problem: Report MIC for "CC[C@H](C)[C@H](NC(=O)[C@@H](Cc1ccccc1)NC(=O)[C@@H](Cc1c[nH]c2ccccc12)NC(=O)[C@@H](N)CCCN=C(N)N)C(=O)N[C@H](Cc1ccccc1)C(=O)N[C@@H](Cc1c[nH]cn1)C(=O)N[C@@H](CCCCN)C(=O)N[C@@H](CCCCN)C(=O)N[C@@H](Cc1c[nH]cn1)C(N)=O" please.
Solution: 2.36

Problem: Could you tell me which MIC is on file for "CC[C@H](C)[C@H](NC(=O)[C@@H](Cc1ccccc1)NC(=O)[C@@H](Cc1c[nH]c2ccccc12)NC(=O)[C@@H](N)CCCN=C(N)N)C(=O)N[C@H](Cc1ccccc1)C(=O)N[C@@H](Cc1c[nH]cn1)C(=O)N[C@@H](CCCCN)C(=O)N[C@@H](CCCCN)C(=O)N[C@@H](CCCCN)C(N)=O" ?
Solution: 2.37
